- Target desc: T1, DEGQ protein, purified (SPRi analyte) (E. coli (strain MSI001), UniProt P39099 28-455)
- T1 sequence (looked up): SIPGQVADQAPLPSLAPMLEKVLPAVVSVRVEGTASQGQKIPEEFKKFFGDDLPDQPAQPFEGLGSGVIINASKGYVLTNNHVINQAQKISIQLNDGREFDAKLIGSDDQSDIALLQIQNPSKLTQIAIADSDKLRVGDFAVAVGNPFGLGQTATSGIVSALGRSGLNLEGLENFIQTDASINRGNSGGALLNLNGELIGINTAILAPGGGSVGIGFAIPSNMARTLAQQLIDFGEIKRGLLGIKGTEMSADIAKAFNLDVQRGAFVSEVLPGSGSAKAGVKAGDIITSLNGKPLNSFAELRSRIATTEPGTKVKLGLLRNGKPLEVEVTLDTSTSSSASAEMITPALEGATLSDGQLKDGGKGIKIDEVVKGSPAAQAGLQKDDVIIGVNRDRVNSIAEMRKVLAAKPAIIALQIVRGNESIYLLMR
- Assay info: SPR
- Applied conditions: both partners purified
Observable: Kd (nM)
The answer is to be given in nM; state only the numeric part.

### Prompt Please look up its Kd: VTKLGSL (also called VTK peptide; source: synthetic peptide) [VTK heptapeptide VTKLGSL, synthesized (immobilised on the SPRi chip)]
### Response 1.73
